- System: Ratten
- Assay comment: Lethal dose after intravenous injection in rats
- Type: in vivo
- Assay setup: Dosis 1: 12 g J/kg, i.v., Ratten (90-110 g), 300 mg Jod/ml, 2 ml/min
Property measured: Zahl der gestorbenen Tiere / Gesamtzahl der Tiere

// solved cases for Zahl der gestorbenen Tiere / Gesamtzahl der Tiere follow
C[C@H](O)C(=O)Nc1c(I)c(C(=O)NC(CO)CO)c(I)c(C(=O)NC(CO)CO)c1I : 2/4
CN(C(=O)CO)c1c(I)c(C(=O)NCC(O)CO)c(I)c(C(=O)NCC(O)CO)c1I (stereo not shown) : 2/3
CN(CC(O)CO)C(=O)c1c(I)c(NC(=O)CO)c(I)c(C(=O)NCC(O)CO)c1I (stereo not shown) : 0/4

Now consider the entry below.
Noted Zahl der gestorbenen Tiere / Gesamtzahl der Tiere for COCC(=O)Nc1c(I)c(C(=O)NCC(O)CO)c(I)c(C(=O)N(C)CC(O)CO)c1I (stereo not shown) , tested on Ratten: 1/4
